- Target or system: human leukocyte elastase (HLE) (Homo sapiens, UniProt P08246)
- Sequence (P08246 30-247): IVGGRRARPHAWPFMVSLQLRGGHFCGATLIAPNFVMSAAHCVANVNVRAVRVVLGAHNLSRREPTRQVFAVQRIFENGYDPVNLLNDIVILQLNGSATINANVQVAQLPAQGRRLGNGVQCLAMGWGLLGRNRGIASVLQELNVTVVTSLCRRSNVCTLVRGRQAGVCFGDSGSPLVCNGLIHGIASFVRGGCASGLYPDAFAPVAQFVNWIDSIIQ
- Assay remarks: Dry phase test strip assay of chromogenic substrates for HLE (reflectance at 557 nm, K/S)
- Format: biochemical
- Setup conditions: between 0 and 48 ng/mL HLE; 120 seconds; diazonium salt NDNSA
Assay metric: Change in K/S
Number, no unit, nothing else.

# Compound structure string, Assay metric, Experimental result
records = [
    ("COC(=O)CCS(=O)(=O)O[C@@H](C)C(=O)Oc1c[nH]c(-c2ccccc2)c1", "Change in K/S", 0.739),
    ("COC(=O)CCS(=O)(=O)N[C@@H](C)C(=O)Oc1c[nH]c(-c2ccccc2)c1", "Change in K/S", 0.902),
    ("CCCS(=O)(=O)O[C@@H](C)C(=O)Oc1c[nH]c(-c2ccccc2)c1", "Change in K/S", 0.949),
]

Pending compound:
Data request, read-out Change in K/S, for CCCS(=O)(=O)N[C@@H](C)C(=O)Oc1c[nH]c(-c2ccccc2)c1
0.831

====

- Target or system: human leukocyte elastase (HLE) (Homo sapiens)
- Assay remarks: Dry phase test strip assay of chromogenic substrates for HLE (reflectance at 557 nm, K/S)
- Type: biochemical
- Setup conditions: HLE 0 ng/mL; response at 120 seconds; diazonium salt NDNSA; 557 nm
Assay metric: K/S
Answer as a number with no unit attached.

Answered examples (7):
# Compound, K/S
rows = [
    ("Cc1ccc(S(=O)(=O)N[C@@H](C)C(=O)Oc2c[nH]c(-c3ccccc3)c2)cc1", 0.044),
    ("Cc1ccc(S(=O)(=O)O[C@@H](C)C(=O)Oc2c[nH]c(-c3ccccc3)c2)cc1", 0.046),
    ("C[C@H](NC(=O)c1ccccc1)C(=O)Oc1c[nH]c(-c2ccccc2)c1", 0.038),
    ("COC(=O)CCS(=O)(=O)O[C@@H](C)C(=O)Oc1c[nH]c(-c2ccccc2)c1", 0.177),
    ("COC(=O)CCS(=O)(=O)N[C@@H](C)C(=O)Oc1c[nH]c(-c2ccccc2)c1", 0.074),
    ("C[C@H](OC(=O)c1ccccc1)C(=O)Oc1c[nH]c(-c2ccccc2)c1 [Ph--CO--R--OPP, R = Lactate (XI), PhCO-(L)-Lac--OPP]", 0.041),
    ("CCCS(=O)(=O)O[C@@H](C)C(=O)Oc1c[nH]c(-c2ccccc2)c1", 0.100),
]

What measured K/S is associated with CCCS(=O)(=O)N[C@@H](C)C(=O)Oc1c[nH]c(-c2ccccc2)c1 on human leukocyte elastase (HLE) (Homo sapiens)?
0.050

====

- Target or system: human leukocyte elastase (HLE) (Homo sapiens)
- Sequence (P08246 30-247): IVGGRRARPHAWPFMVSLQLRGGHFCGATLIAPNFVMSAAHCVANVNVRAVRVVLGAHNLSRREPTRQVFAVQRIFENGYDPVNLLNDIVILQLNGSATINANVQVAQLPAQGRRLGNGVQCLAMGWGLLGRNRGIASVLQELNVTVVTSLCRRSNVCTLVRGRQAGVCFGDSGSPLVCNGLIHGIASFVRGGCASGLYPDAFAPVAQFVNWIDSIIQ
- Assay remarks: Dry phase test strip assay of chromogenic substrates for HLE (reflectance at 557 nm, K/S)
- Format: biochemical
- Setup conditions: between 0 and 19 ng/mL HLE; 120 seconds; diazonium salt NDNSA
In this section we review reported Change in K/S values for a set of compounds.
I'd appreciate a reply containing only the number, no unit.

Below: 5 compounds and their reported Change in K/S.
# Compound, Target or system, Change in K/S
rows = [
    ("COC(=O)CCS(=O)(=O)N[C@@H](C)C(=O)Oc1c[nH]c(-c2ccccc2)c1", "human leukocyte elastase (HLE) (Homo sapiens)", 0.361),
    ("CCCS(=O)(=O)N[C@@H](C)C(=O)Oc1c[nH]c(-c2ccccc2)c1 [n-Pr--SO2 --Ala--OPP]", "human leukocyte elastase (HLE) (Homo sapiens)", 0.313),
    ("CCCS(=O)(=O)O[C@@H](C)C(=O)Oc1c[nH]c(-c2ccccc2)c1 [n-Pr--SO2 --Lac--OPP, nPr--SO2 -(L)-Lac--OPP]", "human leukocyte elastase (HLE) (Homo sapiens)", 0.398),
    ("Cc1ccc(S(=O)(=O)N[C@@H](C)C(=O)Oc2c[nH]c(-c3ccccc3)c2)cc1 [Tosyl--Ala--OPP]", "human leukocyte elastase (HLE) (Homo sapiens)", 0.264),
    ("Cc1ccc(S(=O)(=O)O[C@@H](C)C(=O)Oc2c[nH]c(-c3ccccc3)c2)cc1 [Tosyl-(L)--Lac--OPP, 3-(O-tosyl-(L)-lactoyl)-5-phenylpyrrole]", "human leukocyte elastase (HLE) (Homo sapiens)", 0.302),
]

Identify the measured Change in K/S of C[C@H](NC(=O)c1ccccc1)C(=O)Oc1c[nH]c(-c2ccccc2)c1 [Ph--CO--R--OPP, R = Alanine] for human leukocyte elastase (HLE) (Homo sapiens).
0.001

Entry to check: C[C@H](OC(=O)c1ccccc1)C(=O)Oc1c[nH]c(-c2ccccc2)c1 [Ph--CO--R--OPP, R = Lactate (XI), PhCO-(L)-Lac--OPP]
0.065

Query COC(=O)CCS(=O)(=O)O[C@@H](C)C(=O)Oc1c[nH]c(-c2ccccc2)c1 [MeOSucc--SO2 -(L)-Lac--OPP] next
0.337
